- TESTED_ON: T1, Cynomolgus monkey serum albumin (cynomolgus monkey, UniProt A2V9Z4 25-608)
- T1 construct: bought; immobilised on a CM5 chip by amine coupling; also called Cyno SA
- MEASUREMENT_NOTES: SPR, SA on chip, VHH 300 nM, 25 C
Would you mind telling me the reported koff of each entry?
Please respond with the number in s⁻¹ and leave the unit unwritten.

Exam item: What measured koff goes with VHH moiety 22 (MC6.1C22-P103S) (VHH) VHH: EVQLLESGGGLVQPGGSLRLSCAASGRYIDETAVAWFRQAPGKEREFVAGIGGGVDITYYADSVKGRFTISRDNSKNTLYLQMNSLRPEDTAVYYCAARPGRSLITSKVADLYPYWGQGTLVTVSS ?
Marked response: 0.014

Exam item: What measured koff goes with VHH moiety 17 (MC6.1C22-R102K) (VHH) VHH: EVQLLESGGGLVQPGGSLRLSCAASGRYIDETAVAWFRQAPGKEREFVAGIGGGVDITYYADSVKGRFTISRDNSKNTLYLQMNSLRPEDTAVYYCAARPGKPLITSKVADLYPYWGQGTLVTVSS ?
Marked response: 0.0022
